All figures here come from patent US20230074436A1.

STUDY_SYSTEM: T1, alpha-synuclein peptide 95-140 (human)
T1 construct: synthetic peptide coated on plate
PROTOCOL_NOTES: peptide ELISA, coated fragment
ENDPOINT_LABEL: antibody concentration at which ELISA is positive

# example entries with known answers
Ask | Which antibody concentration at which ELISA is positive is listed for 20H4 (antibody, rat IgG2b, V domains shown, also called clone 20H4; rat 20H4) VH: AVQLVESGGGLVQPKESLKISCAASGFTFSNAAMYWVRQAPGKGLELLARIRTKPNNYATYHADSVKGRFTISRDDSQSMVYLHMGNLKTEDTAMYYCTADMATGDYWGPGVMVTVSS VL: DIQMTQSPPVLSVSVGDRVTLSCKASQNINKNLDWYQQKHGEAPKPLIYSTNNLQTGVPSRFSGSGSGTDYTLTISSLQPEDVATYYCYQYKSAWTFGGGTKLELR ?
Reply | < 40 ng/mL

Ask | What about this binder? 22E11 (antibody, IgG1, V domains shown, also called clone 22E11) VH: AVQLVESGGGLVQPKESLKISCAASGFTFSTAAMYWVRQAPGKGLEWVTRIRTKPNNYATYYADSVKGRFTISRDDSKSMVYLQMDNLKTEDTAMYYCTADYYDGTPFAYWGQGTLVTVSS VL: AVVMTQTPVSLSVSLGGQVSISCRSSQSLVHNNGITYLSWYLQKPGQSPQLPIYKVSNRFSGFSDRFSGGGSGTDFTLKISRVEPDDLGLYYCGQGTQYPYTFGAGTKLELK
Reply | < 40 ng/mL

Ask | What about this binder? 22D11 (antibody, rat IgG1, V domains shown, also called clone 22D11) VH: AVQFVESGGGLVRPKESLKISCTASGFTFTNAAIYWVRQAPGKGLECIARIRTKPNNYATYYADSVRGRFTISRDDSKPMVYLQMNELKTEDTAMYYCAADASRGDYWGQGVMVTVSS VL: DIQMTQSPSVLSASVGDRVTFSCKASQNINKNLDWYQQKLGEVPKVLIYFTNNLQTGIPSRFSGSGSGTDYTLTISSLQPEDVATYYCYQYTSGFTFGAGTKLELK
Reply | < 40 ng/mL

Further cases:
Ask | Which antibody concentration at which ELISA is positive is listed for 1H5 (antibody, rat IgG2b, V domains shown, also called clone 1H5) VH: AVQLVESGGGLVQPKESLKISCAASGFTFSDAAMYWVRQAPGKGLELVARIRTKPNNYATYYADSVKGRFTISRDDSKSMVYLQMGNLKTEDTAMYYCSADFHYFDYWGQGVMVTVSS VL: DIQMTQSPSVLSASVGDRVTLSCKAGQNINKNLDWYQQKLGEAPKLLISFTNNLQTGVPSRFSGSGSGSDYTLTISSLQPEDVATYYCYQYNSGWTFGGGTKLELK ?
Reply | < 40 ng/mL

Ask | What about this binder? 16F3 (antibody, IgG2a, V domains shown, also called clone 16F3) VH: AVQLVESGGGLVQPKESLKISCAASGFTFSNGAMNWVRQAPGKGLEWVARIRTKPNNYATYYADSVKGRFTISRDDSKSMVYLQMDDLKTEDTAMYYCTADGATPFAYWGQGTLVTVSS VL: DVVLTQTPPTLSATIGQSVSISCRSSQSLLHSNGNTYLHWLLQRPGQSPQLLIYLVSRLESGVPNRFSGSGSGTDFTLKISGVEAEDLGVYYCVQGTHAPFTFGSGTKLEIK
Reply | < 40 ng/mL

Ask | What about this binder? 18B4 (antibody, IgG2b, V domains shown, also called clone 18B4) VH: EVQLVESGGGLVQPGRSLKLSCAASGFTFSSFAMAWVRQAPKKGLEWVATITSGGSKTYYPDSVKGRFTISRDNAKSTLYLQMDSLRSEDTATYYCAKGYFDYWGQGVMVTVSS VL: DVVLTQTPPTLSATIGQSVSISCRSSQSLLHSNGNTYLHWLLQRPGQSPQLLIYLVSRLESGVPNRFSGSGSGTDFTLKISGVEAEDLGVYYCVQGTHAPLTFGSGTKLEIK
Reply | < 40 ng/mL
